Item-by-item account of t½
Biological target: T1, minipig PDGF (minipig)
T1 construct: Printed only as minipig PDGF; also called Minpig PDGF
T1 sequence (P20034 whole entry, looked up): SLGSPAVAEPAVIAE
Assay: SPR, Fab fragment; assay format for PDGF not described
Measure name: t½ (min)

- bispecific anti-VEGF/anti-PDGF-B Fab fragment 28.02 (Fab, V domains shown) VH: DLQLVESGGGLVKPGGSLRLSCAADGWWFGYTDMSWVRQAPGKGLEWVGSISYKGGHKYLNTKFIGRFTISRDDDTNTLYLQMNSLRAEDTAVYYCARDDGYFDTWGQGTLVTVSS VL: AIHMYQEPSSLSASVGDRVTITCHGSYWLSNYLAWYQQKPGKAPKLLIYDGKEREHGVPSRFSGSGSHEDYTLTISSLQPEDFATYYCQQYRYHPYTFGHGTKVEIKR: 54
- bispecific anti-VEGF/anti-PDGF-B Fab fragment 28.01 (Fab, V domains shown) VH: DLQLVESGGGLVKPGGSLRLSCAADGWWFGYTDMSWVRQAPGKGLEWVGSISYKGGSTYYNTKFIGRFTISRDDDTNTLYLQMNSLRAEDTAVYYCARDDGYFDTWGQGTLVTVSS VL: AIHMYQEPSSLSASVGDRVTITCHGSYWLSNYLAWYQQKPGKAPKLLIYDGKEREHGVPSRFSGSGSHEDYTLTISSLQPEDFATYYCQQYRYHPYTFGHGTKVEIKR: 69
- bispecific anti-VEGF/anti-PDGF-B Fab fragment P1AA9124 (Fab, V domains shown) VH: DLQLVESGGGLVKPGGSLRLSCAADGWWFGYTDMSWVRQAPGKGLEWVGSISYKGGSTYYNTKFIGRFTISRDDDTNTLYLQMNSLRAEDTAVYYCARDDGYFDTWGQGTLVTVSS VL: AIQMTQSPSSLSASVGDRVTITCHGSYWLSNYLAWYQQKPGKAPKLLIYDGKEREHGVPSRFSGSGSHEDYTLTISSLQPEDFATYYCQQYRYHPYTFGQGTKLEIKR: 48
- bispecific anti-VEGF/anti-PDGF-B Fab fragment RO7113083 (Fab, V domains shown, also called R07113083) VH: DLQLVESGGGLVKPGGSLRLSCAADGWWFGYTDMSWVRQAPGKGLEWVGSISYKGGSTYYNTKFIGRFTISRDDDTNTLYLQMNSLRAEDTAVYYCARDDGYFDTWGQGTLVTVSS VL: AIYMHQEPSSLSASVGDRVTITCHGSYWLSNYLAWYQQKPGKAPKLLIYDGKEREHGVPSRFSGSGSHEDYTLTISSLQPEDFATYYCQQYRYHPYTFGHGTKVEIKR: 59
- bispecific anti-VEGF/anti-PDGF-B Fab fragment 28.07 (Fab, V domains shown) VH: DLQLVESGGGLVKPGGSLRLSCAADGWWFGYTDMSWVRQAPGKGLEWVGSISYKGGHKYLNTKFIGRFTISRDDDTNTLYLQMNSLRAEDTAVYYCARDDGYFDTWGQGTLVTVSS VL: AIYMHQEPSSLSASVGDRVTITCHGSYWLSNYLAWYQQKPGKAPKLLIYDGKEREHGVPSRFSGSGSHEDYTLTISSLQPEDFATYYCQQYRYHPYTFGHGTKVEIKR: 51
